- Tested on: P. vivax DXScc (DXS SH-2, DXS catalytic core) (Plasmodium vivax, UniProt A5K817)
- Construct: catalytic core, N-terminal first 210 residues (signal and transit peptide) deleted; codon-optimized gene in E. coli; theoretical monomer 103,921 Da; homodimer
- Sequence (A5K817 211-1111): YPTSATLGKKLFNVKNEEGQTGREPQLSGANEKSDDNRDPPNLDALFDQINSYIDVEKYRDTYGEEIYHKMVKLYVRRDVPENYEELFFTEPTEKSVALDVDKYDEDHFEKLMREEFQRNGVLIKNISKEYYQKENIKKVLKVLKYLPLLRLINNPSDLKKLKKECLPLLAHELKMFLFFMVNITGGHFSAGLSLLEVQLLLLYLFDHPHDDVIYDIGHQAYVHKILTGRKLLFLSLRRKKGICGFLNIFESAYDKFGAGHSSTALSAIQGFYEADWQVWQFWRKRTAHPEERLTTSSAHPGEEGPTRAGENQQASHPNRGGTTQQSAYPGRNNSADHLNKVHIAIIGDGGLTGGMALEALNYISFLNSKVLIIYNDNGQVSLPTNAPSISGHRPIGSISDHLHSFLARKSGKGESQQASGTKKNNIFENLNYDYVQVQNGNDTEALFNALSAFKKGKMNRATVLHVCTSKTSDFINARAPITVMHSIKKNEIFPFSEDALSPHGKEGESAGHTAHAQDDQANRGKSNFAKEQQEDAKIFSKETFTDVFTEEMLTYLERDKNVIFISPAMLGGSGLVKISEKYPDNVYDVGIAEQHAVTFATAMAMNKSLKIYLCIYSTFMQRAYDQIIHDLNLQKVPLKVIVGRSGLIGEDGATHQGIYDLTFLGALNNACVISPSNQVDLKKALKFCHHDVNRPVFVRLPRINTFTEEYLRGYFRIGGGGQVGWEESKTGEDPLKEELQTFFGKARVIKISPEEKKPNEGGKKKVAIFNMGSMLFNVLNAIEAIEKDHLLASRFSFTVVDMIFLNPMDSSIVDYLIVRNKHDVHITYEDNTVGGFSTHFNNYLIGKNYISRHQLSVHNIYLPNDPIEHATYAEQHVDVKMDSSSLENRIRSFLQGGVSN
- Procedure summary: DXS–DXR coupled assay
Readout: Ki (µM)
Please reply with the bare figure in µM and do not write the unit itself.

Q. Provide the reported Ki (system: P. vivax DXScc (DXS SH-2, DXS catalytic core) (Plasmodium vivax, UniProt A5K817)) for O=C(O)C(=O)CF [β-fluoropyruvate]
A. 200
